target: Peroxisome proliferator-activated receptor delta (Homo sapiens); experiment: Activation of human PPAR-delta LBD expressed in HEK293T cells assessed as induction of receptor activation incubated for 12 to 14 hrs by luciferase reporter gene assay; format: cell-based, HEK-293T
Sequence (Q03181 whole entry, the tested form may be a part): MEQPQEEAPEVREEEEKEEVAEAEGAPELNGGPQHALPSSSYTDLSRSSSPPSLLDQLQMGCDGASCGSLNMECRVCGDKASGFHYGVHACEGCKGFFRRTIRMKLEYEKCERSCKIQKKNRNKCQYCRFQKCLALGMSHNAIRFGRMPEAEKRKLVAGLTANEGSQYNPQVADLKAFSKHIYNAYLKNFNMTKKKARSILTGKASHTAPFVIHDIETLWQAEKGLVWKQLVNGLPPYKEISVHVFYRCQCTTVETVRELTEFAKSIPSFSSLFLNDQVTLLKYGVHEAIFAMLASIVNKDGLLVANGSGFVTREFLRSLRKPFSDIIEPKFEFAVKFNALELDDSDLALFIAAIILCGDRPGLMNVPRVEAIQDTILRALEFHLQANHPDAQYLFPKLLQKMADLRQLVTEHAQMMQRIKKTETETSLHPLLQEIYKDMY

molecular string: CC(C)c1onc(-c2ccccc2)c1COc1ccc(CCCCCC(=O)O)cc1
EC50: > 10 µM
//
molecular string: CC(C)c1onc(-c2ccccc2C(F)(F)F)c1COc1ccc(CCCC(=O)O)cc1
EC50: > 30 µM
//
molecular string: CC(C)c1onc(-c2ccccc2)c1COc1ccc(CCCCC(=O)O)cc1
EC50: > 30 µM
//
molecular string: CC(C)c1onc(-c2ccccc2)c1COc1ccc(COc2ccc(C(=O)O)cc2)cc1
EC50: > 30 µM
//
molecular string: CC(C)c1onc(-c2ccccc2)c1COc1ccc(COc2cccc(C(=O)O)c2)cc1
EC50: > 30 µM

Provenance of the data: ChEMBL document CHEMBL4627415
